These measurements were taken from paper PMC6269467.

- test.target: filamentous actin (F-actin) from rabbit skeletal muscle (rabbit, UniProt P68135 1-377)
- assay.info: co-sedimentation; actin cosedimentation at high RCF: 5 μM ABD and 5 μM actin in 50 μL Buffer-F, 1 h at RT, Airfuge ≥100,000×g 20 min at RT; supernatant and pellet by SDS-PAGE with coomassie, band intensity by ImageJ
- test.parameters: both partners purified
assay.readout: reduction in the amount of ABD cosedimenting with F-actin compared to αEcat-ABD-WT (%)
Report the figure in % without appending any unit label.

Query string: # query: reduction in the amount of ABD cosedimenting with F-actin compared to αEcat-ABD-WT of entry αEcat-ABD 3A (L785A, I792A and V796A together) (domain or fragment, source: E. coli BL21-CodonPlus, purified (glutathione-sepharose, thrombin cleavage, Superdex 75); not shown: GST, N-terminal, cleaved) SRTSVQTEDDQLIAGQSARAIMAQLPQEQKAKIAEQVASFQEEKSKLDAEVSKWDDSGNDIIVLAKQMCMIMMEMTDFTRGKGPLKNTSDVISAAKKIAEAGSRMDKLGRTIADHCPDSACKQDLLAYLQRIAAYCHQLNACSKAKAEVQNLGGELVVSGVDSAMSLIQAAKNLMNAVVQTVKASYVASTKYQKSQGMASLNLPAVSWKMKAPEKKPLVKREKQDETQTKIKRASQKKHVNPVQALSEFKAMDSI
Result string: 78
